# Assayed System: PI3Kδ (Homo sapiens)
# Construct: made in house
# Sequence (O00329 whole entry, one chain of several): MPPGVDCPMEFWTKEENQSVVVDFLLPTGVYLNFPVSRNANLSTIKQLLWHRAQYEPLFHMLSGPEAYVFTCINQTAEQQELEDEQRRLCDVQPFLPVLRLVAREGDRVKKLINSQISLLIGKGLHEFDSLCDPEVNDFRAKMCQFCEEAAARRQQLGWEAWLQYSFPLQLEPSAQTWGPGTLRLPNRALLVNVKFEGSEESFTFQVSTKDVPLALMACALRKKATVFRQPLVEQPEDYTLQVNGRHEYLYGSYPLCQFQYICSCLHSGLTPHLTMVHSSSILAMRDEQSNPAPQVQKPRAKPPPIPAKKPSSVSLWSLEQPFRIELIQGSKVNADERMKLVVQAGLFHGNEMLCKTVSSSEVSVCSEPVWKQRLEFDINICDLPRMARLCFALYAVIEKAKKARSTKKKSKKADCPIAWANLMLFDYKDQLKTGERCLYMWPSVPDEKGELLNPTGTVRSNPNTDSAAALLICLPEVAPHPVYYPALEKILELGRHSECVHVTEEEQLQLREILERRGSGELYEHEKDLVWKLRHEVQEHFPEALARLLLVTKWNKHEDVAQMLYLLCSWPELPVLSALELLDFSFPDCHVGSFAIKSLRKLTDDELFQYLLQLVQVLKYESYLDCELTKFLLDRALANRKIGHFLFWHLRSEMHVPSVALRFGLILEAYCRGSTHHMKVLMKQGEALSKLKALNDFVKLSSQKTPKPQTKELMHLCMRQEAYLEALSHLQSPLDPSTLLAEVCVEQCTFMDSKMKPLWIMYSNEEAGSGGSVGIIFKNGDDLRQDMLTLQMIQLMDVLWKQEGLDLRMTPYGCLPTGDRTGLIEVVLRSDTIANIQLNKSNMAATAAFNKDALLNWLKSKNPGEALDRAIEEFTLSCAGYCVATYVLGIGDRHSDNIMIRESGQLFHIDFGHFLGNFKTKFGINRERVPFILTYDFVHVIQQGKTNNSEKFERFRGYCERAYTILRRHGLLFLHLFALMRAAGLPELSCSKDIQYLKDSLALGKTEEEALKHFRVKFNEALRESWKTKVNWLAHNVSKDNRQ
# Protocol Text: TR-FRET enzymatic activity assay, PI3Kδ
# Assay type: biochemical
Assay Metric: IC50 (nM)
Your answer is read as nM, so omit the unit and give the number.

stdin: Query: IC50; subject: `CC[C@H](Nc1ncnc2[nH]cc(F)c12)c1nc2c(Cl)ccc(Cl)c2c(=O)n1-c1cc[nH]n1`
stdout: 2

====

Exercise: state measured IC50 for each of the molecules provided.
# Assayed System: PI3Kγ (Homo sapiens, UniProt P48736)
# Construct: made in house
# Sequence (P48736 whole entry): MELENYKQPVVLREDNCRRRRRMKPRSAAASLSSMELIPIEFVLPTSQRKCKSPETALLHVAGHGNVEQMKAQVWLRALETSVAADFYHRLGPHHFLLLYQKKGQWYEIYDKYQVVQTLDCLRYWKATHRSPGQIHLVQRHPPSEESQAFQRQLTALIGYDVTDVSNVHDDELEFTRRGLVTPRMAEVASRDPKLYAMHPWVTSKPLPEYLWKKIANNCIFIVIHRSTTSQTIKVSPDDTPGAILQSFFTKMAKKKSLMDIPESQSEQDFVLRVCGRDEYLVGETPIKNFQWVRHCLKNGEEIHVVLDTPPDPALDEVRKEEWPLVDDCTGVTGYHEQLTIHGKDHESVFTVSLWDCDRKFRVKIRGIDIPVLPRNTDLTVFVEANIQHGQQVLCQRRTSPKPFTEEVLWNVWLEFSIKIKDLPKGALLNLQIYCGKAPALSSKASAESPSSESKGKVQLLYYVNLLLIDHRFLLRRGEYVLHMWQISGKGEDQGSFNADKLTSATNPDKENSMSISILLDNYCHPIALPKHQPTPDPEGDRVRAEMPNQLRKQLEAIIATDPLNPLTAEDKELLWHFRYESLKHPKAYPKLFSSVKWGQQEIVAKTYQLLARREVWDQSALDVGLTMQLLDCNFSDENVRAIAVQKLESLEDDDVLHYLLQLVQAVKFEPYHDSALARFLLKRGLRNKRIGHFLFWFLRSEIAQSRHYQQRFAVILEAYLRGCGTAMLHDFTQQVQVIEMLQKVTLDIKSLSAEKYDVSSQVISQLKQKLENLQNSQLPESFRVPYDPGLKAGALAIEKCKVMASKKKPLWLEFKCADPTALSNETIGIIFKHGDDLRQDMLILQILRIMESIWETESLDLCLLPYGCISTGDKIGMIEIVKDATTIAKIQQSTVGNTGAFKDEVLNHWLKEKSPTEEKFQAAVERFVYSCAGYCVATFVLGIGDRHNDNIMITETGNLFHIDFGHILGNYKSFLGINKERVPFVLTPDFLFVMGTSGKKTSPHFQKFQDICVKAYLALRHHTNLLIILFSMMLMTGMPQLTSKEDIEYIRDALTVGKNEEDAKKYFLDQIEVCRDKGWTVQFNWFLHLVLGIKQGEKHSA
# Protocol Text: TR-FRET enzymatic activity assay, PI3Kγ
# Assay type: biochemical
# Test Settings: Table 2a; same assay; read-out: PI3Kγ IC50
Your answer is read as µM, so omit the unit and give the number.

stdin: Query: IC50; subject: C[C@H](Nc1nc(N)nc(N)c1C#N)c1nc2c(Cl)ccc(C(F)F)c2c(=O)n1-c1cc[nH]n1 [Compound 228]
stdout: 0.87

stdin: Moving on to Cc1ccc(Cl)c2nc([C@H](C)Nc3nc(N)nc(N)c3Cl)n(-c3cc[nH]n3)c(=O)c12 [Compound 223]
stdout: 9.4

====

# Assayed System: PI3Kβ (Homo sapiens, UniProt P42338)
# Construct: made in house
# Sequence (P42338 whole entry): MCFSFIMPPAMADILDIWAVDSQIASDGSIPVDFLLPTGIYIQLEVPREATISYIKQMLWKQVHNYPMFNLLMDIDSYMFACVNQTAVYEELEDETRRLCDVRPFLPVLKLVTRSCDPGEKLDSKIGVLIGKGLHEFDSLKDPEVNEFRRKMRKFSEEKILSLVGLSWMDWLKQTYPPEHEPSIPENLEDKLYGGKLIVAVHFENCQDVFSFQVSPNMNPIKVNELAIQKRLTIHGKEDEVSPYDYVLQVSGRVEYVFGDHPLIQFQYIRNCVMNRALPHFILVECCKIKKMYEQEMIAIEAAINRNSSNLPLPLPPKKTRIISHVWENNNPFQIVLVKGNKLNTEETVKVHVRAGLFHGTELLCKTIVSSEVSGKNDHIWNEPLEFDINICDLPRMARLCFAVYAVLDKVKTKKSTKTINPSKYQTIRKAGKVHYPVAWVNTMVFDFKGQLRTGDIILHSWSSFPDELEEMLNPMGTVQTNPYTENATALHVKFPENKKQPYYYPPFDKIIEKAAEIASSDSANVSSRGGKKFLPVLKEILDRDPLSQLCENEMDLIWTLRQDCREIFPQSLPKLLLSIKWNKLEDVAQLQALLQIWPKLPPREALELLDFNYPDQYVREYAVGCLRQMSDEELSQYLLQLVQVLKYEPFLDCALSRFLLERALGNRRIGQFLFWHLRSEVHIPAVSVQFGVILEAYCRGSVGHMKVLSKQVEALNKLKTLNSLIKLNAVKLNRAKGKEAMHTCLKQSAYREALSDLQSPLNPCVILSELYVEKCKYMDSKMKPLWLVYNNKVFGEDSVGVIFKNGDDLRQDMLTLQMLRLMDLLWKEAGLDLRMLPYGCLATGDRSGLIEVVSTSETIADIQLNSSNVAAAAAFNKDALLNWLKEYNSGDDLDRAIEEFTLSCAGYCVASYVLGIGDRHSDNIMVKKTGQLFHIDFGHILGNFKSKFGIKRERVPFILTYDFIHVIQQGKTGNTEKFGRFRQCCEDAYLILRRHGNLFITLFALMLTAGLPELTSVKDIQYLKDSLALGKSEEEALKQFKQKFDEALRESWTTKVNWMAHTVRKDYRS
# Sequence (P27986 whole entry partner): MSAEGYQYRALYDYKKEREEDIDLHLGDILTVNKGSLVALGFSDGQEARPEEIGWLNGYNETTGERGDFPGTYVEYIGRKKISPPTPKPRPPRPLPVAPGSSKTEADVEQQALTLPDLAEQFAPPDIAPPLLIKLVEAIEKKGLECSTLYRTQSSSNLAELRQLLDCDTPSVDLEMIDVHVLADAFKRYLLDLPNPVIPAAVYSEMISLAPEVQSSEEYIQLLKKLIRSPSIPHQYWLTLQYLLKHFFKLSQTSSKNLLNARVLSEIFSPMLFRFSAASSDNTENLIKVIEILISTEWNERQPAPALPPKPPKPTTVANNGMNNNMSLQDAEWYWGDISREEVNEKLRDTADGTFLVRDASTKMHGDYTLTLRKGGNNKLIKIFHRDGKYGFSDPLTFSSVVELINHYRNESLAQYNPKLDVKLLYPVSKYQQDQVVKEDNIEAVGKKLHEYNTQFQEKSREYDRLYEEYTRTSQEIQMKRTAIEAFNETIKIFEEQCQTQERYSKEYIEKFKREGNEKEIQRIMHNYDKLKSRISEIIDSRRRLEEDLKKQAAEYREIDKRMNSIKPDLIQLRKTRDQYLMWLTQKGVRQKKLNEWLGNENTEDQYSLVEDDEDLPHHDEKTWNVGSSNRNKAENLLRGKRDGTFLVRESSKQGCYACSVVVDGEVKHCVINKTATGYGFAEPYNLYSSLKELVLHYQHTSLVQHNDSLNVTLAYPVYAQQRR
# Protocol Text: TR-FRET enzymatic activity assay, PI3Kβ
# Type: biochemical
# Test Settings: Table 2a; same assay
Exercise: state measured IC50 for each of the compounds provided.
Your answer is read as nM, so omit the unit and give the number.

stdin: Query: IC50; subject: `Cc1ccc(Cl)c2nc([C@H](C)Nc3nc(N)nc(N)c3Cl)n(-c3cc[nH]n3)c(=O)c12`
stdout: 3

stdin: Moving on to `Nc1nc(N)c(Cl)c(N[C@H](c2nc3c(F)cc(F)cc3c(=O)n2-c2cc[nH]n2)C2CC2)n1`
stdout: 37

stdin: Moving on to `C[C@H](Nc1nc(N)nc(N)c1Cl)c1nc2cccc(Cl)c2c(=O)n1-c1cc(F)[nH]n1`
stdout: 43

stdin: Moving on to `C[C@H](Nc1nc(N)nc(N)c1C#N)c1nc2cccc(Cl)c2c(=O)n1-c1c[nH]cn1`
stdout: 2

stdin: Moving on to `C[C@H](Nc1nc(N)nc(N)c1C#N)c1nc2ccc(F)c(Cl)c2c(=O)n1-c1cn[nH]c1`
stdout: 8

stdin: Moving on to `C[C@H](Nc1nc(N)nc(N)c1C#N)c1nc2c(Cl)ccc(C(F)F)c2c(=O)n1-c1cc[nH]n1`
stdout: 1

stdin: Moving on to `N#Cc1c(N)nc(N)nc1N[C@H](c1nc2c(Cl)cc(F)cc2c(=O)n1-c1cn[nH]c1)C1CC1`
stdout: 0.9

====

# Assayed System: PI3Kβ (Homo sapiens, UniProt P42338)
# Construct: made in house
# Protocol Text: TR-FRET enzymatic activity assay, PI3Kβ
# Assay type: biochemical
# Test Settings: Table 2a; same assay
Exercise: state measured pIC50 for each of the compounds provided.
In plain terms, pIC50 is the concentration in mol/L turned into minus its base-10 logarithm.

stdin: Query: pIC50; subject: `C[C@H](Nc1nc(N)nc(N)c1Cl)c1nc2cccc(C(F)F)c2c(=O)n1-c1cn[nH]c1`
stdout: 7.44

stdin: Moving on to `C[C@H](Nc1nc(N)nc(N)c1Cl)c1nc2cc(F)cc(Cl)c2c(=O)n1-c1cc[nH]n1`
stdout: 7.68

stdin: Moving on to `C[C@H](Nc1nc(N)nc(N)c1C#N)c1nc2cccc(C(F)(F)F)c2c(=O)n1-c1cn[nH]c1`
stdout: 8.52

stdin: Moving on to `C[C@H](Nc1nc(C(F)F)nc(N)c1C#N)c1nc2c(Cl)cc(F)cc2c(=O)n1-c1cc[nH]n1`
stdout: 6.24

stdin: Moving on to `Cc1c[nH]nc1-n1c([C@@H](Nc2nc(N)nc(N)c2Cl)C2CC2)nc2cccc(Cl)c2c1=O`
stdout: 6.19

stdin: Moving on to `C[C@H](Nc1nc(N)nc(N)c1Cl)c1nc2cccc(Cl)c2c(=O)n1-c1cc(Cl)[nH]n1`
stdout: 7.00

stdin: Moving on to `C[C@H](Nc1nc(N)nc(N)c1C#N)c1nc2c(Cl)cc(F)cc2c(=O)n1-c1cn[nH]c1`
stdout: 8.40
